- subject_of_test: Gamma-hydroxybutyrate receptor (Rattus norvegicus) (UniProt Q6RY99)
- Sequence (whole entry): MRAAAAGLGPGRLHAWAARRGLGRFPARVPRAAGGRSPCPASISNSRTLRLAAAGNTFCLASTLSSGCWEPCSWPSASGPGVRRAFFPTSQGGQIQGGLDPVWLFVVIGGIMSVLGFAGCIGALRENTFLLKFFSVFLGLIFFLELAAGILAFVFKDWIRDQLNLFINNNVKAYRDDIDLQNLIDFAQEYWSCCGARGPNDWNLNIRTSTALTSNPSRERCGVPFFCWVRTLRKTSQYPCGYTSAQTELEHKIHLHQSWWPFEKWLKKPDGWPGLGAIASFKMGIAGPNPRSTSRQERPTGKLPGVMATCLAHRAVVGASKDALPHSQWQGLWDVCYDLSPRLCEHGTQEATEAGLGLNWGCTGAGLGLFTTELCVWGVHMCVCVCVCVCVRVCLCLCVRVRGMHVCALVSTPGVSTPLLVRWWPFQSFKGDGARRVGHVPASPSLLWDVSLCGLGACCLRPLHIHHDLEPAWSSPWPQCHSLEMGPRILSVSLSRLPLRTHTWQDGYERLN
- method_notes: Binding affinity to succinic acid binding site of gamma-hydroxybutyrate receptor in rat forebrain synaptic membranes at 100 uM
- Assay type: cell membranes
- condition_summary: Membrane
Activity calls are given as the source filed them. No cut-off for these calls is given here.
value_type: Activity

Here's what some known entries look like.
{"structure_string": "COC(=O)[C@@H]1C[C@H](O)CCN1", "subject_of_test": "Gamma-hydroxybutyrate receptor (Rattus norvegicus) (UniProt Q6RY99)", "Activity": "inactive"}
{"structure_string": "O=C(O)[C@H]1C[C@@H](O)CCN1", "subject_of_test": "Gamma-hydroxybutyrate receptor (Rattus norvegicus) (UniProt Q6RY99)", "Activity": "26%"}
{"structure_string": "O=C(O)[C@H]1C[C@H](O)CCN1", "subject_of_test": "Gamma-hydroxybutyrate receptor (Rattus norvegicus) (UniProt Q6RY99)", "Activity": "inactive"}
{"structure_string": "COC(=O)[C@H]1C[C@H](O)CCN1", "subject_of_test": "Gamma-hydroxybutyrate receptor (Rattus norvegicus) (UniProt Q6RY99)", "Activity": "inactive"}

Read the next record carefully.
## Input Under Gamma-hydroxybutyrate receptor (Rattus norvegicus) (UniProt Q6RY99), report Activity for O=C(O)[C@@H]1C[C@H](O)CCN1
## Output inactive

###

- subject_of_test: Gamma-hydroxybutyrate receptor (Rattus norvegicus) (UniProt Q6RY99)
- method_notes: Binding affinity to gamma-hydroxybutyrate binding site of gamma-hydroxybutyrate receptor in rat forebrain synaptic membranes at 100 uM
- Assay type: cell membranes
- condition_summary: Membrane
The source made the active and inactive calls. The rule behind the calls is not given here.
value_type: Activity

Here's what some known entries look like.
{"structure_string": "COC(=O)[C@@H]1C[C@H](O)CCN1", "subject_of_test": "Gamma-hydroxybutyrate receptor (Rattus norvegicus) (UniProt Q6RY99)", "Activity": "inactive"}
{"structure_string": "COC(=O)[C@H]1C[C@H](O)CCN1", "subject_of_test": "Gamma-hydroxybutyrate receptor (Rattus norvegicus) (UniProt Q6RY99)", "Activity": "inactive"}
{"structure_string": "O=C(O)[C@H]1C[C@@H](O)CCN1", "subject_of_test": "Gamma-hydroxybutyrate receptor (Rattus norvegicus) (UniProt Q6RY99)", "Activity": "30%"}
{"structure_string": "O=C(O)[C@H]1C[C@H](O)CCN1", "subject_of_test": "Gamma-hydroxybutyrate receptor (Rattus norvegicus) (UniProt Q6RY99)", "Activity": "inactive"}

## Input Please look at this compound and report its Activity: O=C(O)[C@@H]1C[C@H](O)CCN1
## Output inactive
